Where these numbers come from: paper PMC12120022

- MEASURED_ON: EcPBP3 (Escherichia coli)
- Construct: For assays, selections and SPR a construct with residues 60–588 which has the N-terminal domain, but not the transmembrane helix, was used; made in house
- Sequence (P0AD68 60-588): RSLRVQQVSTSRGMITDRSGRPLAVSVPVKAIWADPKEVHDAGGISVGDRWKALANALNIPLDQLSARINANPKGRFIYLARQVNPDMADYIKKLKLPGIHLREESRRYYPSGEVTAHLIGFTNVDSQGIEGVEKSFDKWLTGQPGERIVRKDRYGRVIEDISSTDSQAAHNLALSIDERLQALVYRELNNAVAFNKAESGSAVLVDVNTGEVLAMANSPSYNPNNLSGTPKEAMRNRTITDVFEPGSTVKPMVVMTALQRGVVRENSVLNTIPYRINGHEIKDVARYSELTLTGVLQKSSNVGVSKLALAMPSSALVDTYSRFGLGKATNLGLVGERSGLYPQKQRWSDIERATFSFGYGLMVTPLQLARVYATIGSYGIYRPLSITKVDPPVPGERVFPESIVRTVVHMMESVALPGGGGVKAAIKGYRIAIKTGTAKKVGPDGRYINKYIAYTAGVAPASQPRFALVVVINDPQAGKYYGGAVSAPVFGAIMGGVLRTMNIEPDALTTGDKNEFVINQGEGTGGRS
- RUN_DESCRIPTION: SPR binding assay on immobilised EcPBP3
- MEASUREMENT_SETUP: 37 °C, kinetic fitting; NB = no binding at 2500 nM (Tables S-4, S-5) or 5000 nM (Table 1); read-out: Kd (nM) by SPR (geomean)
READOUT: log10(Kd) (log10 of the value in nM)

[
  {
    "COMPOUND": "Cc1ccccc1C[C@@H]1NC(=O)[C@H](CO)NC(=O)[C@@H](NC(=O)[C@H](C)N)CSCCC(=O)N2CN3CN(C2)C(=O)CCSC[C@H](NC(=O)[C@H](CCCCN)NC(=O)[C@@H]2CCCN2C1=O)C(=O)N1CCC[C@H]1C(=O)N[C@@H](Cc1c[nH]c2ccccc12)C(=O)N[C@@H](C(C)C)C(=O)N[C@@H](CCC(=O)O)C(=O)NCC(=O)N[C@H](C(=O)N[C@@H](C)C(N)=O)CSCCC3=O [Peptide 57]",
    "MEASURED_ON": "EcPBP3 (Escherichia coli)",
    "RECORDED_RESULT": 1.35
  },
  {
    "COMPOUND": "CC(C)[C@@H]1NC(=O)[C@H](Cc2c[nH]c3ccccc23)NC(=O)[C@@H]2CCCN2C(=O)[C@@H]2CSCCC(=O)N3CN(CN(C3)C(=O)CCSC[C@@H](C(=O)N[C@@H](C)C(N)=O)NC(=O)[C@H](C)NC(=O)[C@H](CCC(=O)O)NC1=O)C(=O)CCSC[C@H](NC(=O)[C@H](C)N)C(=O)N[C@@H](CO)C(=O)N[C@@H](Cc1ccccc1)C(=O)N1CCC[C@H]1C(=O)N[C@@H](CCCCN)C(=O)N2 [Peptide 24]",
    "MEASURED_ON": "EcPBP3 (Escherichia coli)",
    "RECORDED_RESULT": 1.39
  },
  {
    "COMPOUND": "CC(C)[C@@H]1NC(=O)[C@H](Cc2c[nH]c3ccccc23)NC(=O)[C@@H]2CCCN2C(=O)[C@@H]2CSCCC(=O)N3CN(CN(C3)C(=O)CCSC[C@H](NC(=O)[C@H](C)N)C(=O)N[C@@H](CO)C(=O)N[C@@H](Cc3ccccc3)C(=O)N3CCC[C@H]3C(=O)N[C@@H](C)C(=O)N2)C(=O)CCSC[C@@H](C(=O)N[C@@H](C)C(N)=O)NC(=O)CNC(=O)[C@H](CCC(=O)O)NC1=O [Peptide 19]",
    "MEASURED_ON": "EcPBP3 (Escherichia coli)",
    "RECORDED_RESULT": 1.09
  },
  {
    "COMPOUND": "CC(C)[C@@H]1NC(=O)[C@H](Cc2c[nH]c3ccccc23)NC(=O)[C@@H]2CCCN2C(=O)[C@@H]2CSCCC(=O)N3CN(CN(C3)C(=O)CCSC[C@H](NC(=O)[C@H](C)N)C(=O)N[C@@H](CO)C(=O)N[C@@H](Cc3c(F)c(F)c(F)c(F)c3F)C(=O)N3CCC[C@H]3C(=O)N[C@@H](CCCCN)C(=O)N2)C(=O)CCSC[C@@H](C(=O)N[C@@H](C)C(N)=O)NC(=O)CNC(=O)[C@H](CCC(=O)O)NC1=O [Peptide 54]",
    "MEASURED_ON": "EcPBP3 (Escherichia coli)",
    "RECORDED_RESULT": 2.85
  },
  {
    "COMPOUND": "CC(C)[C@@H]1NC(=O)[C@H](Cc2cnc3ccccc3c2)NC(=O)[C@@H]2CCCN2C(=O)[C@@H]2CSCCC(=O)N3CN(CN(C3)C(=O)CCSC[C@H](NC(=O)[C@H](C)N)C(=O)N[C@@H](CO)C(=O)N[C@@H](Cc3ccccc3)C(=O)N3CCC[C@H]3C(=O)N[C@@H](CCCCN)C(=O)N2)C(=O)CCSC[C@@H](C(=O)N[C@@H](C)C(N)=O)NC(=O)CNC(=O)[C@H](CCC(=O)O)NC1=O [Peptide 62]",
    "MEASURED_ON": "EcPBP3 (Escherichia coli)",
    "RECORDED_RESULT": 1.43
  },
  {
    "COMPOUND": "C[C@H](N)C(=O)N[C@H]1CSCCC(=O)N2CN3CN(C2)C(=O)CCSC[C@H](NC(=O)CNC(=O)[C@H](Cc2ccccc2)NC(=O)[C@H]([C@@H](C)O)NC(=O)[C@H](CCCNC(=N)N)NC1=O)C(=O)N[C@@H](Cc1c[nH]c2ccccc12)C(=O)N[C@@H](Cc1c[nH]c2ccccc12)C(=O)N[C@@H](CCC(=O)O)C(=O)NCC(=O)N[C@H](C(=O)N[C@@H](C)C(N)=O)CSCCC3=O [Peptide 5]",
    "MEASURED_ON": "EcPBP3 (Escherichia coli)",
    "RECORDED_RESULT": 2.57
  },
  {
    "COMPOUND": "Cc1ccc(C[C@@H]2NC(=O)[C@H](CO)NC(=O)[C@@H](NC(=O)[C@H](C)N)CSCCC(=O)N3CN4CN(C3)C(=O)CCSC[C@H](NC(=O)[C@H](CCCCN)NC(=O)[C@@H]3CCCN3C2=O)C(=O)N2CCC[C@H]2C(=O)N[C@@H](Cc2c[nH]c3ccccc23)C(=O)N[C@@H](C(C)C)C(=O)N[C@@H](CCC(=O)O)C(=O)NCC(=O)N[C@H](C(=O)N[C@@H](C)C(N)=O)CSCCC4=O)cc1 [Peptide 58]",
    "MEASURED_ON": "EcPBP3 (Escherichia coli)",
    "RECORDED_RESULT": 0.70
  },
  {
    "COMPOUND": "CC(C)[C@@H]1NC(=O)[C@H](Cc2c[nH]c3cc(Cl)ccc23)NC(=O)[C@@H]2CCCN2C(=O)[C@@H]2CSCCC(=O)N3CN(CN(C3)C(=O)CCSC[C@H](NC(=O)[C@H](C)N)C(=O)N[C@@H](CO)C(=O)N[C@@H](Cc3ccccc3)C(=O)N3CCC[C@H]3C(=O)N[C@@H](CCCCN)C(=O)N2)C(=O)CCSC[C@@H](C(=O)N[C@@H](C)C(N)=O)NC(=O)CNC(=O)[C@H](CCC(=O)O)NC1=O [Peptide 65]",
    "MEASURED_ON": "EcPBP3 (Escherichia coli)",
    "RECORDED_RESULT": -0.57
  },
  {
    "COMPOUND": "CC(C)[C@@H]1NC(=O)[C@H](Cc2c[nH]c3cc(F)ccc23)NC(=O)[C@@H]2CCCN2C(=O)[C@@H]2CSCCC(=O)N3CN(CN(C3)C(=O)CCSC[C@H](NC(=O)[C@H](C)N)C(=O)N[C@@H](CO)C(=O)N[C@@H](Cc3ccccc3)C(=O)N3CCC[C@H]3C(=O)N[C@@H](CCCCN)C(=O)N2)C(=O)CCSC[C@@H](C(=O)N[C@@H](C)C(N)=O)NC(=O)CNC(=O)[C@H](CCC(=O)O)NC1=O [Peptide 66]",
    "MEASURED_ON": "EcPBP3 (Escherichia coli)",
    "RECORDED_RESULT": -0.31
  }
]
